- target.or.system: mouse GPR35 (Mus musculus, UniProt Q9ES90)
- Sequence (Q9ES90 whole entry): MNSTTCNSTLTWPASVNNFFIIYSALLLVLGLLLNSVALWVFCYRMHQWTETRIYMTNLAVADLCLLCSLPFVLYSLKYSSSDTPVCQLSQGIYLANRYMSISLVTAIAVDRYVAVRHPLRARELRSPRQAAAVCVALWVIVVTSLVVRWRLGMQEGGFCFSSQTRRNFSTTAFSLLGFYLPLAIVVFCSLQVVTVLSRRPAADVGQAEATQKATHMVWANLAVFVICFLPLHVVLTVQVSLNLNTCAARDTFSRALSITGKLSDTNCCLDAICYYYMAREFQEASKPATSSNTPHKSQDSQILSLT
- assay.method.text: BRET β-arrestin-2 recruitment assay, HEK293T cells, mouse GPR35
measured.quantity: EC50 (nM)
Numbers only, in nM.

[Q] Reported EC50, compound CCCOc1ccccc1-c1nc2nn[nH]c2c(=O)[nH]1 [zaprinast] : ____
[A] 1050
